tested on: SARS-CoV-2; experiment: Antiviral efficacy by RNA copy numbers (qRT-PCR), co-treatment, Calu-3 human lung cell line; conditions: 48 hours post-infection, Calu-3 cells, co-treatment
Quantity Kind: pIC50
// scale note: pIC50 = -log10(conc_M); give the bare number

// returns reported pIC50 for input C[C@H]1[C@H](OC(=O)CCC(=O)O)O[C@@H]2O[C@@]3(C)CC[C@H]4[C@H](C)CC[C@@H]1[C@@]24OO3 [artesunate] 6.35

Thanks! And COc1ccc2nc3cc(Cl)ccc3c(Nc3cc(CN4CCCC4)c(O)c(CN4CCCC4)c3)c2n1 [pyronaridine] ? 5.07
